biological target: 5HT2A receptor (Homo sapiens, UniProt P28223); construct: expressed in transfected cells; experiment: Binding affinity at cloned human 5HT2A receptor, [3H]Ketanserin
Sequence (P28223 whole entry): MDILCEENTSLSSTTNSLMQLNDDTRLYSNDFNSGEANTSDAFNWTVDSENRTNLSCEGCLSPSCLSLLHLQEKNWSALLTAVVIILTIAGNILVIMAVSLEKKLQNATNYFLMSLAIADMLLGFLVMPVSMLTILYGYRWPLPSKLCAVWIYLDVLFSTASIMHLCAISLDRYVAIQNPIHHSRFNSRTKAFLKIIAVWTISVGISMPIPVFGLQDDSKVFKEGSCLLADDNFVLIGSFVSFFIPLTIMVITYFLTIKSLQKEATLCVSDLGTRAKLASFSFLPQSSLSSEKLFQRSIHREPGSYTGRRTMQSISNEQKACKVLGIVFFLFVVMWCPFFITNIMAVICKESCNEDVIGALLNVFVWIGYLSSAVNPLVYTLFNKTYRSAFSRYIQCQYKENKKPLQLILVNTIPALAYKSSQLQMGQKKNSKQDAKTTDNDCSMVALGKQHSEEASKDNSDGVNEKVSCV
Assay Readout: Ki (nM)

The cases that follow already have their Ki on record.
C#CCN(CCCCN1CCN(c2ccccc2)CC1)C1CCc2ccc(O)cc2C1 (stereo not shown) [Compound 12b] = 260
O=C(NCCN(CCCCN1CCN(c2ccccc2)CC1)C1CCc2ccc(O)cc2C1)c1ccccc1 (stereo not shown) [Compound 10b] = 287
CCCN(CCCCN1CCN(c2ccccc2)CC1)C1CCc2ccc(O)cc2C1 (stereo not shown) [Compound 15b] = 1780
CCCN(CCCCN1CCN(c2cccc(Cl)c2Cl)CC1)C1CCc2ccc(O)cc2C1 (stereo not shown) [Compound 19a] = 356
O=C(NCCCCN(CCCCN1CCN(c2ccccc2)CC1)C1CCc2ccc(O)cc2C1)c1ccccc1 (stereo not shown) [Compound 10a] = 1230

a = N#CCCCN(CCCCN1CCN(c2ccccc2)CC1)C1CCc2ccc(O)cc2C1 (stereo not shown) [Compound 8]
b = CCCN(CCN1CCN(c2ccccc2)CC1)C1CCc2ccc(O)cc2C1 (stereo not shown) [Compound 15a]
// pick larger Ki from pair: a vs b Give the chosen item's label as your response.
b

====

Where a name gives a salt, the structure may show the parent alone.
Assay Readout: melting point

Consider the worked cases shown below.
CCCN(CCc1ccc(NS(=O)(=O)c2ccc(Cl)cc2)cc1)CCN1CCN(c2ccccc2)CC1 (as salt: hydrochloride) [Compound 30a] = 224 to 226 °C
CCCN(CCc1cccc(NS(=O)(=O)c2ccc(Cl)cc2)c1)CCN1CCN(c2ccccc2)CC1 (as salt: hydrochloride) [Compound 30b] = 220 to 224 °C
CCCN(CCCCN1CCN(c2ccccc2)CC1)C1CCc2ccc(O)cc2C1 (stereo not shown) (as salt: HBr) [Compound 15b] = 152 to 156 °C
CCCN(CCc1ccc(N)cc1)CCN1CCN(c2ccccc2)CC1 (as salt: hydrochloride) [Compound 29a] = 262 to 264 °C
C#CCN(CCCCN1CCN(c2cccc(Cl)c2Cl)CC1)C1CCc2ccc(O)cc2C1 (stereo not shown) (as salt: HCl) [Compound 19b] = 180 to 183 °C
C#CCN(CCCCN1CCN(c2ccccc2)CC1)C1CCc2ccc(O)cc2C1 (stereo not shown) (as salt: HBr) [Compound 12b] = 182 to 186 °C
O=C(NCCCCN(CCCCN1CCN(c2ccccc2)CC1)C1CCc2ccc(O)cc2C1)c1ccccc1 (stereo not shown) [Compound 10a] = 70 to 71 °C
CCCN(CCCCN1CCN(c2cccc(Cl)c2Cl)CC1)C1CCc2ccc(O)cc2C1 (stereo not shown) (as salt: HCl) [Compound 19a] = 155 to 159 °C

Report measured melting point; entry is CCCN(CCN1CCN(c2ccccc2)CC1)C1CCc2nc(N)ncc2C1 (stereo not shown) (as salt: HCl)
97 to 102 °C

Return reported melting point. Input molecule: CCCN(CCc1cccc(N)c1)CCN1CCN(c2ccccc2)CC1 (as salt: hydrochloride) [Compound 29b]
278 to 284 °C

====

biological target: D2 receptor (Homo sapiens, UniProt P14416); construct: expressed in transfected cells; experiment: Binding affinity at cloned human D2 receptor, [3H]YM-09151-2 (CHOp-D2 cells)
Sequence (P14416 whole entry): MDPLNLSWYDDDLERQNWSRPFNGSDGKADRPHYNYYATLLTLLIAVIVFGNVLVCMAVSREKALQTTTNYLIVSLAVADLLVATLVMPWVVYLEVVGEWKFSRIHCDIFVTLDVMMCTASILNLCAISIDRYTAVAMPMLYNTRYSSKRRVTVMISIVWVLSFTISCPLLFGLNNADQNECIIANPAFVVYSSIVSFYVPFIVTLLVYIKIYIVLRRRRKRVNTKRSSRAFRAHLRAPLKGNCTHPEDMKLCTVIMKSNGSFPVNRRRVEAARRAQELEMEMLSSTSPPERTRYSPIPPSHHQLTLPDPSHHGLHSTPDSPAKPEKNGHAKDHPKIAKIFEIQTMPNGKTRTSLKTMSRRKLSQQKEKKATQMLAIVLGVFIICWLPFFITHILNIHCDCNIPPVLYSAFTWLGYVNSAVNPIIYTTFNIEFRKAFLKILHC
Assay Readout: Ki (nM)

Example entries begin here.
CCCN(CCCCN1CCN(c2ccccc2)CC1)C1CCc2ccc(O)cc2C1 (centres unmarked) [Compound 15b] = 3.37
O=C(NCCN(CCCCN1CCN(c2ccccc2)CC1)C1CCc2ccc(O)cc2C1)c1ccccc1 (centres unmarked) [Compound 10b] = 111
N#CCCCN(CCCCN1CCN(c2ccccc2)CC1)C1CCc2ccc(O)cc2C1 (centres unmarked) [Compound 8] = 89.8

P = O=C(NCCCCN(CCCCN1CCN(c2ccccc2)CC1)C1CCc2ccc(O)cc2C1)c1ccccc1 (centres unmarked) [Compound 10a]
Q = CCCN(CCCCN1CCN(c2cccc(Cl)c2Cl)CC1)C1CCc2ccc(O)cc2C1 (centres unmarked) [Compound 19a]
Hi there, can you help? I need to know whether P or Q has lower measured Ki. Indicate your choice by writing its label.
Q
(Q: 31.5 nM, P: 119 nM)

====

target: D2 receptor (Homo sapiens, UniProt P14416); construct: expressed in transfected cells; test: Binding affinity at cloned human D2 receptor, [3H]Spiperone (Table 5); settings: cloned human D2, Table 5
Assay Readout: Ki (nM)

Worked examples, 2 molecules total:
CCCN(CCc1ccc(NS(=O)(=O)c2ccc(Cl)cc2)cc1)CCN1CCN(c2ccccc2)CC1 [Compound 30a] = 702
CCCN(CCc1cccc(N)c1)CCN1CCN(c2ccccc2)CC1 [Compound 29b] = 23500

A = CCCN(CCc1cccc(NS(=O)(=O)c2ccc(Cl)cc2)c1)CCN1CCN(c2ccccc2)CC1 [Compound 30b]
B = CCCN(CCc1ccc(N)cc1)CCN1CCN(c2ccccc2)CC1 [Compound 29a]
I'm curious, which of these has a smaller Ki number: A or B ? Use the label to indicate which entry you chose.
A

====

molecular target: D3 receptor (Homo sapiens); assay: Agonist potency by [3H]thymidine incorporation (mitogenesis), D3; conditions: [3H]thymidine incorporation
Sequence (P35462 whole entry): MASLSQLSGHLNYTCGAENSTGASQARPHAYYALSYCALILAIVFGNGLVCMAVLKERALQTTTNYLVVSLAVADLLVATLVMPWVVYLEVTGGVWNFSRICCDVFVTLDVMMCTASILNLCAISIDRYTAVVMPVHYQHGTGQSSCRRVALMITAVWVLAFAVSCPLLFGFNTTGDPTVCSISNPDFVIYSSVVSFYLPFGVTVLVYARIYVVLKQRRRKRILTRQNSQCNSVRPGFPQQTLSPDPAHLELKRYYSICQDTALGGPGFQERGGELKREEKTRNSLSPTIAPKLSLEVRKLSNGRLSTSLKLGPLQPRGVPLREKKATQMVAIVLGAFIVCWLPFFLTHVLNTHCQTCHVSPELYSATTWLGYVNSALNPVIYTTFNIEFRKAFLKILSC
Assay Readout: EC50 (nM)

1 = CCCN(CCCCN1CCN(c2ccccc2)CC1)C1CCc2ccc(O)cc2C1 (centres unmarked) [Compound 15b]
2 = CCCN(CCCCN1CCN(c2cccc(Cl)c2Cl)CC1)C1CCc2ccc(O)cc2C1 (centres unmarked) [Compound 19a]
// compare measured EC50, left 1 , right 2 , return larger Label of pick, please.
2
(2: 6.49 nM, 1: 0.91 nM)

====

target: D2 receptor (Homo sapiens); construct: expressed in transfected cells; test: Agonist potency by [3H]thymidine incorporation (mitogenesis), D2; assay type: cell-based; conditions: [3H]thymidine incorporation; >80% full agonist; read-out: D2 % Maxm Stim
Assay Readout: Emax (%)

CCCN(CCCCN1CCN(c2cccc(Cl)c2Cl)CC1)C1CCc2ccc(O)cc2C1 (centres unmarked) [Compound 19a] = 80.1

A = CCCN(CCN1CCN(c2ccccc2)CC1)C1CCc2ccc(O)cc2C1 (centres unmarked) [Compound 15a]
B = O=C(NCCN(CCCCN1CCN(c2ccccc2)CC1)C1CCc2ccc(O)cc2C1)c1ccccc1 (centres unmarked) [Compound 10b]
C = O=C(NCCCCN(CCCCN1CCN(c2ccccc2)CC1)C1CCc2ccc(O)cc2C1)c1ccccc1 (centres unmarked) [Compound 10a]
Order the records, beginning with the lowest Emax and ending with the highest. Put the labels in the order asked and list them.
B, C, A
(B: 27%, C: 44.9%, A: 105%)

1 = CCCN(CCCCN1CCN(c2ccccc2)CC1)C1CCc2ccc(O)cc2C1 (centres unmarked) [Compound 15b]
2 = N#CCCCN(CCCCN1CCN(c2ccccc2)CC1)C1CCc2ccc(O)cc2C1 (centres unmarked)
# argmax over Emax for candidates 1 and 2 Field: selected label. Fill in the label of the entry you choose.
1

====

target: D4 receptor (Homo sapiens, UniProt P21917); test: Binding affinity at cloned human D4 receptor, [3H]YM-09151-2 (CHO D4.4 cells); parameters: expressed in transfected cells; host or cells: CHO D4.4 cells; settings: cloned human D4
Sequence (P21917 whole entry): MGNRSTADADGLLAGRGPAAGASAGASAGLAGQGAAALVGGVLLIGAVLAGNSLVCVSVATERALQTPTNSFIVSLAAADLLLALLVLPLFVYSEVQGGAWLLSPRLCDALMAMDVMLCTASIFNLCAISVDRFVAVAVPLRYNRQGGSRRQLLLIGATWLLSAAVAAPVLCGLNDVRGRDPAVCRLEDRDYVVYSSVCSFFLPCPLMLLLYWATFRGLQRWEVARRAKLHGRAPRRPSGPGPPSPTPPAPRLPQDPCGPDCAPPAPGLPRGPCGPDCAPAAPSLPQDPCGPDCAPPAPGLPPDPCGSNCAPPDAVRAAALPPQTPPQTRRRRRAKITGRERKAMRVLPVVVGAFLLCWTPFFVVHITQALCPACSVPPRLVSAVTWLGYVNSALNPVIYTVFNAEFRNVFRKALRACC
Assay Readout: Ki (nM)

The cases that follow already have their Ki on record.
O=C(NCCCCN(CCCCN1CCN(c2ccccc2)CC1)C1CCc2ccc(O)cc2C1)c1ccccc1 (centres unmarked) [Compound 10a] = 137
C#CCN(CCCCN1CCN(c2ccccc2)CC1)C1CCc2ccc(O)cc2C1 (centres unmarked) [Compound 12b] = 28.9
O=C(NCCN(CCCCN1CCN(c2ccccc2)CC1)C1CCc2ccc(O)cc2C1)c1ccccc1 (centres unmarked) [Compound 10b] = 35.6

1 = CCCN(CCCCN1CCN(c2ccccc2)CC1)C1CCc2ccc(O)cc2C1 (centres unmarked) [Compound 15b]
2 = N#CCCCN(CCCCN1CCN(c2ccccc2)CC1)C1CCc2ccc(O)cc2C1 (centres unmarked)
For the pair 1 and 2 , which member has the lower Ki number? Which one? Tell me its label.
1
(1: 25.7 nM, 2: 142 nM)

====

biological target: UniProt:P35462; assay: Binding affinity at cloned human D3 receptor, [3H]YM-09151-2 (CHOp-D3 cells); set-up: expressed in transfected cells; host or cells: CHOp-D3 cells; details: ratio of Ki D2 to Ki D3, [3H]YM-09151-2 protocol of Table 4
Assay Readout: D2/D3

CCCN(CCCCN1CCN(c2ccccc2)CC1)C1CCc2ccc(O)cc2C1 (centres unmarked) [Compound 15b] = 1
CCCN(CCN1CCN(c2ccccc2)CC1)C1CCc2ccc(O)cc2C1 (centres unmarked) [Compound 15a] = 25
N#CCCCN(CCCCN1CCN(c2ccccc2)CC1)C1CCc2ccc(O)cc2C1 (centres unmarked) [Compound 8] = 1.18
C#CCN(CCN1CCN(c2ccccc2)CC1)C1CCc2ccc(O)cc2C1 (centres unmarked) [Compound 12a] = 2.8

a = O=C(NCCN(CCCCN1CCN(c2ccccc2)CC1)C1CCc2ccc(O)cc2C1)c1ccccc1 (centres unmarked) [Compound 10b]
b = CCCN(CCCCN1CCN(c2cccc(Cl)c2Cl)CC1)C1CCc2ccc(O)cc2C1 (centres unmarked) [Compound 19a]
c = C#CCN(CCCCN1CCN(c2cccc(Cl)c2Cl)CC1)C1CCc2ccc(O)cc2C1 (centres unmarked) [Compound 19b]
d = O=C(NCCCCN(CCCCN1CCN(c2ccccc2)CC1)C1CCc2ccc(O)cc2C1)c1ccccc1 (centres unmarked) [Compound 10a]
Arrange by D2/D3, high to low. Form entry: labels listed in requested order.
b, c, a, d

Numbers sourced from patent US8227604B2.
